Test system: ATP;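 also: ATP exposure 15 min at 22 °C before imaging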
assay-details: switch fluorescence ratio, 500 uM ATP over buffer (Cy3 cluster intensity, sum of 5 cycles each) (fold (ratio)); higher = stronger signal-on switching upon ATP binding; sequences stand for … in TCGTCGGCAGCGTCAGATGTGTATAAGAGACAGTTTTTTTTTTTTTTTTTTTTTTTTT…TC
condition-label: aptamer strand: ATP DNA aptamer (quencher-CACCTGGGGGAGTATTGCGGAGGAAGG + anchor), 100 nM annealed; ATP concentration: 500 uM
I'd appreciate it if you could supply switch fluorescence ratio values for the items below.
Provide a numeric answer; units are not to be included.

input: # return recorded switch fluorescence ratio for entry ACTCTGGGGG
output: 1.07

input: # return recorded switch fluorescence ratio for entry TACGCCATAT
output: 1.46

input: # return recorded switch fluorescence ratio for entry CACGACTTTT
output: 1.05

input: # return recorded switch fluorescence ratio for entry TCGTCATGTT
output: 0.999

input: # return recorded switch fluorescence ratio for entry AATATTTTTT
output: 1.01

input: # return recorded switch fluorescence ratio for entry GATAACTGAA
output: 1.07

input: # return recorded switch fluorescence ratio for entry AAATCTCTTA
output: 0.997

input: # return recorded switch fluorescence ratio for entry TAATAGTGGG
output: 1.03

input: # return recorded switch fluorescence ratio for entry TGTTGAAATT
output: 1.03

input: # return recorded switch fluorescence ratio for entry TGGATCAGTG
output: 0.993

input: # return recorded switch fluorescence ratio for entry TTGAGTCAAT
output: 1.04

input: # return recorded switch fluorescence ratio for entry ATGTAATTTG
output: 0.988

input: # return recorded switch fluorescence ratio for entry GAGTAACTCG
output: 1.01

input: # return recorded switch fluorescence ratio for entry GAGCAACGGA
output: 1.02

input: # return recorded switch fluorescence ratio for entry CCCTAATACG
output: 1.76

input: # return recorded switch fluorescence ratio for entry ATGTTCCTAC
output: 1.04

input: # return recorded switch fluorescence ratio for entry TGGGGCACCG
output: 0.994

input: # return recorded switch fluorescence ratio for entry CTTTTCAGGT
output: 0.998

input: # return recorded switch fluorescence ratio for entry GTTGTGGTAT
output: 0.978

input: # return recorded switch fluorescence ratio for entry GGGTGTTAGA
output: 1

input: # return recorded switch fluorescence ratio for entry CCGAGTAGGG
output: 1.07

input: # return recorded switch fluorescence ratio for entry AAGGGCGCAG
output: 0.993

input: # return recorded switch fluorescence ratio for entry TAAAAGTCTA
output: 1

input: # return recorded switch fluorescence ratio for entry GTGGCCTGGA
output: 1.01

input: # return recorded switch fluorescence ratio for entry CGGGCTGAGA
output: 1.05

input: # return recorded switch fluorescence ratio for entry TATCCCGGCG
output: 0.998

input: # return recorded switch fluorescence ratio for entry AAAGGGCAAT
output: 1.14

input: # return recorded switch fluorescence ratio for entry CTCATAATTT
output: 0.993

input: # return recorded switch fluorescence ratio for entry GGCTACAGGG
output: 0.999

input: # return recorded switch fluorescence ratio for entry CGGACTGTCA
output: 1.02

input: # return recorded switch fluorescence ratio for entry AATATAACCT
output: 1.94

input: # return recorded switch fluorescence ratio for entry TGGGGTTGAA
output: 0.958

input: # return recorded switch fluorescence ratio for entry CGCATCCCGC
output: 1.37

input: # return recorded switch fluorescence ratio for entry ATAATTTTAT
output: 1.08

input: # return recorded switch fluorescence ratio for entry GTTAGTTACT
output: 1.01

input: # return recorded switch fluorescence ratio for entry AGCTCGGGTA
output: 0.998

input: # return recorded switch fluorescence ratio for entry ACTGATCGCG
output: 1.02

input: # return recorded switch fluorescence ratio for entry GGTTGGTGTG
output: 0.967

input: # return recorded switch fluorescence ratio for entry TCACAGGTTT
output: 1.05

input: # return recorded switch fluorescence ratio for entry GAGTTATCG
output: 1.01
